# assay_name: Genotoxicity in rec negative Bacillus subtilis M45 assessed as diameter of inhibition zone at 256 ug measured after 24 hrs by rec-assay
# Assay type: toxicity
# protocol_conditions: in vivo

molecular_string	diameter of the inhibition zone (DIZ) [mm]
CC[C@@H](C(=O)[C@@H](C)[C@@H](O)[C@H](C)[C@@H]1O[C@@H]([C@@H](CC)C(=O)NCCc2ccc(F)cc2)CC[C@@H]1C)[C@H]1O[C@]2(C=C[C@@H](O)[C@]3(CC[C@@](C)([C@H]4CC[C@](O)(CC)[C@H](C)O4)O3)O2)[C@H](C)C[C@@H]1C	27
CC[C@@H](C(=O)[C@@H](C)[C@@H](O)[C@H](C)[C@@H]1O[C@@H]([C@@H](CC)C(=O)ONC(=O)c2ccccc2)CC[C@@H]1C)[C@H]1O[C@]2(C=CC(=O)[C@]3(CC[C@@](C)([C@H]4CC[C@](O)(CC)[C@H](C)O4)O3)O2)[C@H](C)C[C@@H]1C	23
CC[C@@H](C(=O)[C@@H](C)[C@@H](O)[C@H](C)[C@@H]1O[C@@H]([C@@H](CC)C(=O)ONC(=O)c2ccccc2O)CC[C@@H]1C)[C@H]1O[C@]2(C=CC(=O)[C@]3(CC[C@@](C)([C@H]4CC[C@](O)(CC)[C@H](C)O4)O3)O2)[C@H](C)C[C@@H]1C	19
C#CCN[C@@H]1C=C[C@]2(O[C@H]([C@@H](CC)C(=O)[C@@H](C)[C@@H](O)[C@H](C)[C@@H]3O[C@@H]([C@@H](CC)C(=O)O)CC[C@@H]3C)[C@@H](C)C[C@H]2C)O[C@@]12CC[C@@](C)([C@H]1CC[C@](O)(CC)[C@H](C)O1)O2	34
